Just for reference, ChEMBL document CHEMBL5137112 is where these values come from.

Species: Homo sapiens
procedure_text: Selectivity ratio of Ki for 5-HT2B receptor (unknown origin) to Ki for 5-HT2C receptor (unknown origin)
Below, each of the molecules is paired with its reported Ratio Ki value.
Respond using a number only.

Below: 5 molecules and their reported Ratio Ki.
| molecule | Ratio Ki |
| --- | --- |
| CCC(C)Oc1cc2c(cc1OC)-c1c(OC)c(OC)cc3c1[C@H](C2)N(C)CC3 (some centres undefined) | 0.1 |
| COc1cc2c(cc1OC)-c1c(OC)c(OC)cc3c1[C@H](C2)N(C)CC3 [GLAUCINE] | 0.4 |
| CCCCC(C)Oc1cc2c3c(c1OC)-c1cc(OC)c(OC)cc1C[C@@H]3N(C)CC2 (some centres undefined) | 1 |
| COc1cc2c(cc1OC)-c1c(OC)c(OCc3ccc(Br)cc3)cc3c1[C@H](C2)N(C)CC3 | 16 |
| COc1cc2c(cc1OCC1CC1)C[C@H]1c3c(cc(OC)c(OC)c3-2)CCN1C | 0.05 |

Requested field: Ratio Ki. Item: CCCCCOc1cc2c3c(c1OC)-c1cc(OC)c(OC)cc1C[C@@H]3N(C)CC2
1

What would you report for CCCCCOc1cc2c(cc1OC)-c1c(OC)c(OC)cc3c1[C@H](C2)N(C)CC3 ?
0.1

Same lookup for CCC(C)Oc1cc2c3c(c1OC)-c1cc(OC)c(OC)cc1C[C@@H]3N(C)CC2 (some centres undefined) , please.
1

* * *

tested_on: Serotonin 2 receptors; 5-HT2a & 5-HT2c (Homo sapiens) (UniProt P28223+P28335)
Sequence (P28223 whole entry, looked up): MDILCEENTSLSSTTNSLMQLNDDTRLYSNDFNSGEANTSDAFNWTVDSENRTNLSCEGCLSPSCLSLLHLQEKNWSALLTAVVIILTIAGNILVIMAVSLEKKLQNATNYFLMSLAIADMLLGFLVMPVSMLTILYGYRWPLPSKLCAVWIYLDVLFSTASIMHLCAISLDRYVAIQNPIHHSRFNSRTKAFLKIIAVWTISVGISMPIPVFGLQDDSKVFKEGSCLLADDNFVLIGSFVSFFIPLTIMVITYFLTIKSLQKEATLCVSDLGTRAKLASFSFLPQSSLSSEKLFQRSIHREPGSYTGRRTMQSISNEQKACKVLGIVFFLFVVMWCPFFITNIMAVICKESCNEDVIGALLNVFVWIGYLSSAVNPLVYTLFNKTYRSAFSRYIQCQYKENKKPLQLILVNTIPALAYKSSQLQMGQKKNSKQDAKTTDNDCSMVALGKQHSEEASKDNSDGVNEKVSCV
Sequence (P28335 whole entry, looked up): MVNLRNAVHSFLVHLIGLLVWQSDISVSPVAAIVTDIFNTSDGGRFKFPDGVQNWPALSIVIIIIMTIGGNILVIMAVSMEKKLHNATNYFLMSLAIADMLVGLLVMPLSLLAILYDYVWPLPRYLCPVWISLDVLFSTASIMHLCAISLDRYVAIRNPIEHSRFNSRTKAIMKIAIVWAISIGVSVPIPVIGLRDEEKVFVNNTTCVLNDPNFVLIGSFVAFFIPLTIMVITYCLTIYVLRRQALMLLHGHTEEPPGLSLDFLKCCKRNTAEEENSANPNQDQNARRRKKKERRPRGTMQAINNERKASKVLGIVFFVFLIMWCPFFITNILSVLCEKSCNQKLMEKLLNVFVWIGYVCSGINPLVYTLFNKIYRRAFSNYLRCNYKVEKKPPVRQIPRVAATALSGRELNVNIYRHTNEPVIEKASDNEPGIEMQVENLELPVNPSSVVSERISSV
procedure_text: Selectivity ratio of Ki for 5-HT2A receptor (unknown origin) to Ki for 5-HT2C receptor (unknown origin)
Type: protein assay
yes means recorded Ratio Ki is 2 or above; no means it is below 2.

| compound | label_class |
| --- | --- |
| CCOc1cc2c(cc1OC)-c1c(OC)c(OC)cc3c1[C@H](C2)N(C)CC3 | no |
| CCCCOc1cc2c3c(c1OC)-c1cc(OC)c(OC)cc1C[C@@H]3N(C)CC2 | yes |
| CCCCC(C)Oc1cc2c3c(c1OC)-c1cc(OC)c(OC)cc1C[C@@H]3N(C)CC2 (stereo partly drawn) | yes |
| CCOc1cc2c3c(c1OC)-c1cc(OC)c(OC)cc1C[C@@H]3N(C)CC2 | no |
| CCCCOc1cc2c(cc1OC)-c1c(OC)c(OC)cc3c1[C@H](C2)N(C)CC3 | no |
| CCCCC(C)Oc1cc2c(cc1OC)-c1c(OC)c(OC)cc3c1[C@H](C2)N(C)CC3 (stereo partly drawn) | no |
| CCCC(C)Oc1cc2c3c(c1OC)-c1cc(OC)c(OC)cc1C[C@@H]3N(C)CC2 (stereo partly drawn) | yes |

Please turn your attention to the following entry.
Hi, just wondering whether CCCCCCOc1cc2c3c(c1OC)-c1cc(OC)c(OC)cc1C[C@@H]3N(C)CC2 shows Ratio Ki of 2 or higher.
yes

* * *

tested_on: Serotonin 2 receptors; 5-HT2a & 5-HT2c (Homo sapiens) (UniProt P28223+P28335)
procedure_text: Selectivity ratio of Ki for 5-HT2A receptor (unknown origin) to Ki for 5-HT2C receptor (unknown origin)
Format: protein assay
metric: Ratio Ki
Keep it simple and answer with nothing but the number.

Worked set:
| smiles_str | metric | value |
| --- | --- | --- |
| CCCCCOc1cc2c(cc1OC)-c1c(OC)c(OC)cc3c1[C@H](C2)N(C)CC3 | Ratio Ki | 0.5 |
| COc1cc2c(cc1OC)-c1c(OC)c(OC(C)C)cc3c1[C@H](C2)N(C)CC3 | Ratio Ki | 3.1 |
| COc1cc2c(cc1OCCF)C[C@H]1c3c(cc(OC)c(OC)c3-2)CCN1C | Ratio Ki | 2.1 |

// next entry
Quick one: Ratio Ki of C=CCOc1cc2c(cc1OC)-c1c(OC)c(OC)cc3c1[C@H](C2)N(C)CC3 ?
0.7
